biological target: KRAS G12D (Homo sapiens, UniProt P01116, G12D); assay: KRAS G12D Probe Displacement Assay (TR-FRET, GDP-loaded); assay type: binding; details: KRAS G12D, read-out: KRAS^G12D Probe Displacement Assay IC50
Sequence (P01116 1-188 isoform P01116-2 G12D): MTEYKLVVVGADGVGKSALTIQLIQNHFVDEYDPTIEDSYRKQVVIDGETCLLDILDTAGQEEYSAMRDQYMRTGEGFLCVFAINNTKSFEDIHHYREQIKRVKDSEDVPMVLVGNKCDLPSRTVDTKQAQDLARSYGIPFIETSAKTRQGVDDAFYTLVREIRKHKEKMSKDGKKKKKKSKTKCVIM
pIC50: −log10 of the molar value.
parameter: pIC50

* Cc1cc(N)cc(-c2nc3c4c(nc(OCC5(CN6C[C@@H]7C[C@@H]7[C@H]6CO)CC5)nc4c2F)N2C[C@H]4CC[C@H](N4)[C@H]2CCO3)c1C(F)(F)F | > 9.52
* CO[C@@H]1CCN(CC2(COc3nc4c5c(nc(-c6cc(N)cc(C)c6C(F)(F)F)c(F)c5n3)OCC[C@@H]3[C@@H]5CC[C@H](CN43)N5)CC2)C1 | > 9.52
* Cc1cc(N)cc(-c2nc3c4c(nc(OCC5(CN6CCC(C)(C#N)C6)CC5)nc4c2F)N2C[C@H]4CC[C@H](N4)[C@H]2CCO3)c1C(F)(F)F (stereo partly shown) | > 9.52
* Cc1cc(N)cc(-c2nc3c4c(nc(OCC5(CN6CCn7ncnc7C6)CC5)nc4c2F)N2C[C@H]4CC[C@H](N4)[C@H]2CCO3)c1C(F)(F)F | 6.00 to 8.52
* Cc1cc(N)cc(-c2nc3c4c(nc(N5CC(C)(N(C)C)C5)nc4c2F)N2C[C@H]4CC[C@H](N4)[C@H]2CCO3)c1C(F)(F)F | 8.52 to 9.52
* Cc1cc(N)cc(-c2nc3c4c(nc(OCC5(CN6CC7CC(C6)O7)CC5)nc4c2F)N2C[C@H]4CC[C@H](N4)[C@H]2CCO3)c1C(F)(F)F | > 9.52
* CO[C@@H]1CCN(CC2(COc3nc4c5c(nc(-c6cc(N)cc(C)c6C(F)(F)F)c(F)c5n3)OCC[C@@H]3[C@@H]5CC[C@H](CN43)N5)CC2)C[C@@H]1F | > 9.52
* Cc1cc(N)cc(-c2nc3c4c(nc(N5CC(N(C)C)C5)nc4c2F)N2C[C@H]4CC[C@H](N4)[C@H]2CCO3)c1C(F)(F)F | 8.52 to 9.52
* Cc1cc(N)cc(-c2nc3c4c(nc(OC[C@@H]5COC[C@H]5N(C)C)nc4c2F)N2C[C@H]4CC[C@H](N4)[C@H]2CCO3)c1C(F)(F)F | > 9.52
* Cc1cc(N)cc(-c2nc3c4c(nc(OCC5(CN6CC7CC7C6)CC5)nc4c2F)N2C[C@H]4CC[C@H](N4)[C@H]2CCO3)c1C(F)(F)F (stereo partly shown) | > 9.52
* Cc1cc(N)cc(-c2nc3c4c(nc(OC[C@@H]5OC[C@H]5N(C)C)nc4c2F)N2C[C@H]4CC[C@H](N4)[C@H]2CCO3)c1C(F)(F)F | 8.52 to 9.52
* [2H]C([2H])([2H])N1C[C@H](OC)C[C@H]1[C@H](C)Oc1nc2c3c(nc(-c4cc(N)cc(Cl)c4C(F)(F)F)c(F)c3n1)OCC[C@@H]1[C@@H]3CC[C@H](CN21)N3 | > 9.52
* Cc1cc(N)cc(-c2nc3c4c(nc(OCC5(CN6CC=C[C@H]6C)CC5)nc4c2F)N2C[C@H]4CC[C@H](N4)[C@H]2CCO3)c1C(F)(F)F | > 9.52
* Cc1cc(N)cc(-c2nc3c4c(nc(OCC5(C)CN(CC6CC6)CC/C5=C\F)nc4c2F)N2C[C@H]4CC[C@H](N4)[C@H]2CCO3)c1C(F)(F)F (single isomer, unassigned) | > 9.52
* C=C1CN2C[C@H](F)C[C@]2(COc2nc3c4c(nc(-c5cc(N)cc(C)c5C(F)(F)F)c(F)c4n2)OCC[C@@H]2[C@@H]4CC[C@H](CN32)N4)C1 | > 9.52
* Cc1cc(N)cc(-c2nc3c4c(nc(OC[C@]5(O)COC[C@H]5N(C)C)nc4c2F)N2C[C@H]4CC[C@H](N4)[C@H]2CCO3)c1C(F)(F)F | 8.52 to 9.52
* CO[C@H]1CCN(CC2(COc3nc4c5c(nc(-c6cc(N)cc(C)c6C(F)(F)F)c(F)c5n3)OCC[C@@H]3[C@@H]5CC[C@H](CN43)N5)CC2)C[C@H]1F | > 9.52
* Cc1cc(N)cc(-c2nc3c4c(nc(O[C@H]5COC[C@@H]5N(C)C)nc4c2F)N2C[C@H]4CC[C@H](N4)[C@H]2CCO3)c1C(F)(F)F | 6.00 to 8.52
* Cc1cc(N)cc(-c2nc3c4c(nc(OC[C@]5(CN(C)C)CC5(F)F)nc4c2F)N2C[C@H]4CC[C@H](N4)[C@H]2CC(C)O3)c1C(F)(F)F (single isomer, unassigned) | > 9.52
* Cc1cc(N)cc(-c2nc3c4c(nc(OCC5(CN6CC7(C6)CC(F)(F)C7)CC5)nc4c2F)N2C[C@H]4CC[C@H](N4)[C@H]2CCO3)c1C(F)(F)F | > 9.52
* Cc1cc(N)cc(-c2nc3c4c(nc(OC[C@@]56C[C@H](F)CN5C[C@H](F)C6)nc4c2F)N2C[C@H]4CC[C@H](N4)[C@H]2CCO3)c1C(F)(F)F | 8.52 to 9.52
* C=C1CN2C[C@H](F)C[C@@]2(COc2nc3c4c(nc(-c5cc(N)cc(Cl)c5C(F)(F)F)c(F)c4n2)OCC[C@@H]2[C@@H]4CC[C@H](CN32)N4)C1 | > 9.52

// provenance: patent US20260347373A1
